The reported measurements were obtained from patent US6664241B2.

PROCEDURE_DETAILS: Ascending single-dose nephrotoxicity study in rabbits
Assay type: in vivo, Female New Zealand white rabbits
TEST_CONTEXT: female, New Zealand white, rabbit, in vivo, ascending single intravenous infusion doses, urine volume, BUN, creatinine, read-out: NOAEL acute rabbit
QUANTITY_KIND: NOAEL
The reply should consist of the numeric value with the unit placed after it.

IN: Give the measured NOAEL of C[C@@H]1[C@H](O)[C@@H](C)/C=C/C=C/C=C/C=C/C=C/C=C/C=C/[C@H](O[C@@H]2O[C@H](C)[C@@H](O)[C@H](N)[C@@H]2O)C[C@@H]2O[C@](O)(C[C@@H](O)C[C@@H](O)[C@H](O)CC[C@@H](O)C[C@@H](O)CC(=O)O[C@H]1C)C[C@H](O)[C@H]2C(=O)O [AMB, amphotericin B, reference compound] .
OUT: 0.375 mg/kg
